# Tested on: OVCAR-4
# EXPERIMENTAL_PROTOCOL: NCI tumour cell line growth inhibition, 48 h
Active and inactive are the calls of the source. Cut-off read from the data, not from the text of the source: active = GI50 up to about 1.1 µM and inactive = higher.
# maps each entry to its GI50

Here's what some known entries look like.
| COMPOUND | GI50 |
| --- | --- |
| Cc1ccc(C2=CC(=O)OC(C[P+](c3ccccc3)(c3ccccc3)c3ccccc3)(c3ccccc3)O2)cc1 (stereo unspecified) | 16.4 µM (inactive) |
| COc1ccc(NC(=O)C(=O)C2NC(=S)NC2=O)c(OC)c1 (stereo unspecified) | > 100 µM (inactive) |
| O=S(=O)(c1ccccc1)N1CCCC(c2ccccc2)CC1 (stereo unspecified) | 79.1 µM (inactive) |
| O=C(O)[C@@H]1C[C@@H](O)CN1 | > 100 µM (inactive) |
| Cc1cc(=O)oc2c(OS(C)(=O)=O)c(OS(C)(=O)=O)ccc12 | > 100 µM (inactive) |

Now examine the next entry.
Record C=C1C(C)C2C(Cc3ccccc3)NC(=O)C23C(OC(C)=O)C=CC(C)(O)C(=O)C(C)C/C=C/C3C1O (stereo unspecified) , field GI50: 3.55 µM (inactive)

====

# maps each entry to its GI50
# System: UO-31
# EXPERIMENTAL_PROTOCOL: NCI tumour cell line growth inhibition, 48 h
Calls of active or inactive are those of the source. Cut-off read from the data, not from the text of the source: active = GI50 up to about 1.1 µM and inactive = higher.

Here's what some known entries look like.
| COMPOUND | OBSERVED |
| --- | --- |
| CCCN(CCC)c1cc2c(cc1F)c(=O)c(C(=O)O)cn2-c1ccc(N2CCN(C)CC2)cn1 | 13.3 µM (inactive) |
| O=S(=O)(c1ccccc1)N1CCCC(c2ccccc2)CC1 (stereo not given) | 55 µM (inactive) |
| COc1ccc(N2C(=O)[C@H]3CC(C)c4c([nH]c5ccccc45)[C@H]3C2=O)cc1 (stereo not given in full) | 5.61 µM (inactive) |
| CCOC(=O)c1ccc(-c2ccc(Cl)cc2)[nH]1 | > 10 µM (inactive) |
| CC1=C(CO)C(=O)O[C@@H]([C@@H](CO)[C@H]2CCC3C4C[C@@H](O)[C@@]5(O)CC=CC(=O)[C@]5(C)C4CC[C@@]32C)C1 (stereo not given in full) | 24.4 µM (inactive) |

Record COc1cccc(NC(=O)CSc2nnc(-c3ccc(NC(C)=O)cc3)o2)c1 , field GI50: 80.4 µM (inactive)

Record COc1ccc(C2c3cc4c(cc3OC(NNc3ccccc3)C2C)OCO4)cc1 (stereo not given) , field GI50: 4.33 µM (inactive)

Record O=C(NN1C(=O)C(Cl)C1c1ccccc1O)c1ccccc1O (stereo not given) , field GI50: 21.3 µM (inactive)

Record Cc1cccc(-n2c(C)nc3ccc(NC(=S)Nc4ccccc4)cc3c2=O)c1 , field GI50: 47.4 µM (inactive)

Record Nc1nc2cc(CNc3ccc(C(=O)NC(CCC(=O)O)C(=O)O)cc3)ccc2nc1-c1ccccc1 (stereo not given) , field GI50: > 10 µM (inactive)

Record COc1cc2ccc3c4cc(OC)c(OC)cc4c[n+](C)c3c2cc1O , field GI50: > 100 µM (inactive)

Record O=C1Cc2c([nH]c3ccc(Br)cc23)-c2cc(O)c(O)cc2N1 , field GI50: > 100 µM (inactive)

Record COc1cc(-c2cc(OC)c(OC)c3ccc(Br)cc23)c2cc(Br)ccc2c1OC , field GI50: 41.8 µM (inactive)

Record O=C(O)CCCc1ccc2c(c1)CC1(C2)Cc2cc3c(cc2C1)CCCC3 , field GI50: 19.4 µM (inactive)

====

# Test system: U-251
# EXPERIMENTAL_PROTOCOL: NCI tumour cell line growth inhibition, 48 h
Active and inactive are the calls of the source. Rule as the data show it: active = GI50 up to about 1.1 µM and inactive = higher.
Please state which outcome applies, choosing from active, inactive

| COMPOUND | CLASS_ASSIGNMENT |
| --- | --- |
| CN1NC(c2ccc(Cl)cc2)=C(C#N)C(=O)CC1c1ccccc1 (stereo not drawn) | inactive |

In this assay, the call recorded for CCN(CC)CCn1c2c3ccccc3ccc2c2oc(=O)c3ccccc3c21 was what?
inactive

In this assay, the call recorded for c1ccc(-c2nnc(-c3nsc4ccccc34)o2)cc1 was what?
inactive

In this assay, the call recorded for COc1ccc(CN(Cc2ccc(OC)cc2)C(=O)CC2(O)C=CCC2)cc1 (stereo not drawn) was what?
inactive

In this assay, the call recorded for Brc1ccc2c(-c3nc(-c4c[nH]c5ccccc45)cs3)c[nH]c2c1 was what?
inactive

In this assay, the call recorded for CN(C)CCNC(=O)c1cnn(C)c1[N+](=O)[O-] was what?
inactive

In this assay, the call recorded for Cc1cc(=O)oc2c(OS(C)(=O)=O)c(OS(C)(=O)=O)ccc12 was what?
inactive

In this assay, the call recorded for Cn1c(C(C)(C)OC(=O)Oc2ccccc2)cnc1[N+](=O)[O-] was what?
inactive

====

# maps each entry to its GI50
# Tested on: UO-31
# EXPERIMENTAL_PROTOCOL: NCI tumour cell line growth inhibition, 48 h
Active and inactive are the calls of the source. No stated cut-off is given here; in the data, active = GI50 up to about 1.1 µM and inactive = higher.

Here's what some known entries look like.
| MOLECULE | GI50 |
| --- | --- |
| CC(=O)OC(C)(C)CCC(=O)[C@](C)(O)[C@H]1[C@H](O)C[C@@]2(C)[C@@H]3CCc4c(cc(OC5OC(CO)C(O)C(O)C5O)c(O)c4C)C3(C)C(=O)C[C@]12C (some centres undefined) | > 100 µM (inactive) |
| O=C(CC(Cc1ccccc1)c1ccc(Oc2ccccc2)cc1)Nc1cccc(Cl)c1 (centres undefined) | 4.24 µM (inactive) |

Record NC1=NN(c2ccccc2)C(=O)C1/C(=N\NC(=O)c1cc2ccccc2cc1O)C(=O)Nc1cccc(C(F)(F)F)c1 (centres undefined) , field GI50: 32.8 µM (inactive)

Record O=C(CSc1nnc(-c2ccccn2)s1)N/N=C/c1ccccc1 , field GI50: 39.4 µM (inactive)

====

# maps each entry to its GI50
# Tested on: RXF 393
# EXPERIMENTAL_PROTOCOL: NCI tumour cell line growth inhibition, 48 h
The source made the active and inactive calls. Rule as the data show it: active = GI50 up to about 1.1 µM and inactive = higher.

Here's what some known entries look like.
| COMPOUND | GI50 |
| --- | --- |
| COc1cc2ccc3c4cc(OC)c(OC)cc4c[n+](C)c3c2cc1O | > 100 µM (inactive) |
| COc1cc(/C=C\c2nnc(/C=C\c3ccc(O)c(OC)c3)s2)ccc1O | 1.16 µM (inactive) |
| COc1ccc2c(c1OC)C(=O)O[C@@H]2[C@H]1c2c(cc3c(c2OC)OCO3)CCN1C | > 100 µM (inactive) |
| O=C1Cc2c([nH]c3ccc(Br)cc23)-c2cc(O)c(O)cc2N1 | > 100 µM (inactive) |
| C=CC[C@]12C=C(OC)[C@@H](O)[C@](OC)(C(c3cc(OC)c4c(c3)OCO4)[C@H]1C)[C@H]2OC(C)=O (stereo partly drawn) | > 100 µM (inactive) |

Record CCCCS/C(=C(/C#N)C(N)=O)c1cc2c([nH]1)CCCC2 , field GI50: 14.9 µM (inactive)

Record CCCc1nnc2sc(COc3cc(Cl)c(OCc4nn5c(CCC)nnc5s4)cc3Cl)nn12 , field GI50: 31.6 µM (inactive)

Record CC1=NN=C(N)NC1=CC(Sc1ccc(Cl)cc1)c1c(O)ccc2ccccc12 (stereo not drawn) , field GI50: 4.75 µM (inactive)

Record CCOP1(=O)C=CC(Cl)=C(C)C1 (stereo not drawn) , field GI50: 4.27 µM (inactive)

Record Cc1cc(=O)oc2c(C)c(O)ccc12 , field GI50: > 100 µM (inactive)

====

# System: LOX IMVI
# EXPERIMENTAL_PROTOCOL: NCI tumour cell line growth inhibition, 48 h
The source made the active and inactive calls. Cut-off read from the data, not from the text of the source: active = GI50 up to about 1.1 µM and inactive = higher.
Please state which outcome applies, choosing from active, inactive

// known answers, use as guide
| COMPOUND | CLASS_ASSIGNMENT |
| --- | --- |
| COC(=O)[C@@H]1C[C@H]2OC(=O)CC[C@]2(C)O[C@H]1[C@H]1O[C@@](C)(O)CCC[C@H]1C | inactive |
| O=C1CSC(c2cccc(Oc3ccccc3)c2)N1c1cccc(Cl)c1Cl (configuration not stated) | inactive |
| Cn1c(=O)nc2n(-c3ccc(Cl)cc3)c3ccc(Cl)cc3nc-2c1=O | inactive |
| O=C(O)CN1CCN(CC(=O)N2CCN(C(=O)OCc3ccccc3)CC2)CCN(CC(=O)O)CCN(CC(=O)N2CCN(C(=O)OCc3ccccc3)CC2)CC1 | inactive |
| CCN(CC)CCn1c2c3ccccc3ccc2c2oc(=O)c3ccccc3c21 | inactive |
| COc1cc(/C=C\c2nnc(/C=C\c3ccc(O)c(OC)c3)s2)ccc1O | inactive |
| COc1cc(S(=O)(=O)Nc2ccc(-c3csc(N4C(=O)C(C)SC4c4cccs4)n3)cc2)ccc1Cl (configuration not stated) | inactive |
| CCCCCCCC(CC(=O)NC(CO)C(=O)NC(CO)CC(C)C)OC(=O)CC(CCCCCCC)OC(=O)CC(CCCCCCC)OC1OC(C)C(O)C(OC2OC(C)C(O)C(O)C2O)C1O (configuration not stated) | inactive |

In this assay, the call recorded for O=C(O)CCCc1ccc2c(c1)CC1(C2)Cc2cc3c(cc2C1)CCCC3 was what?
inactive

In this assay, the call recorded for CN(C)c1ncnc2c1ncn2C1C=CC(COS(N)(=O)=O)C1 (configuration not stated) was what?
inactive
